The reported numbers originate from ChEMBL document CHEMBL1153467.

- Tested on: MDR1 (human)
- EXPERIMENT SUMMARY: Apparent permeability across pig L-MDR1 cells overexpressing human MDR1
- Type: ADME, cell-based, Sus scrofa
- CONDITION CONTEXT: LLC-PK1
OBSERVATION TYPE: Papp (×10⁻⁶ cm/s)
Numbers only here, please. The scale is ×10⁻⁶ cm/s.

Here are 6 compounds together with their reported answers.
>>> observed("Cc1nc(CN[C@H]2CC[C@@H](F)C2)c(C(C)C)n1-c1cc(F)cc(F)c1")
34
>>> observed("Cc1ccc(-n2c(-c3ncccc3Cl)nc(CN[C@H]3CC[C@@H](F)C3)c2C)cn1")
16.8
>>> observed("Cc1ccc(-n2c(-c3ncccc3Cl)nc(CNC3CCCC3)c2C(C)C)cn1")
25
>>> observed("Cc1ccc(-n2c(-c3ncccc3Cl)nc(CN[C@H]3CC[C@@H](F)C3)c2C(C)C)cn1")
24.1
>>> observed("COCCc1nc(CN[C@H]2CC[C@@H](F)C2)n(C(C)C)c1-c1ccc(Cl)cc1")
28.6
>>> observed("CCc1c(CN[C@H]2CC[C@@H](F)C2)nc(-c2ncccc2Cl)n1-c1ccc(C)nc1")
20.6

Next compound, Papp to be filled in.
Recall the recorded Papp for Cc1nc(CNC2CCCC2)n(C(C)C)c1-c1ccc(Cl)cc1 with MDR1 (human) and state it.
18.2
